- Test system: AEK1 (Tb927.3.2440)
- assay.protocol: percent reduction in TR-FRET probe signal relative to DMSO control; higher = stronger displacement of ATP-site probe (binding)
- condition.label: 1 µM; incubation time 1 h
outcome.measure: percent reduction in TR-FRET probe signal (%)
Answers are plain numbers, in %.

>>> readout_value("O=C(NC1CCNCC1)c1n[nH]cc1NC(=O)c1c(Cl)cccc1Cl")
-2.75
>>> readout_value("Nc1ncnc2c1c(-c1cccc(OCc3ccccc3)c1)cn2[C@H]1C[C@@H](CN2CCC2)C1")
0.997

Requested read-out percent reduction in TR-FRET probe signal, target or system AEK1 (Tb927.3.2440), entry C[C@@H]1CN(CC(=O)Nc2ccc3c(c2)Cc2cccc(-c4cc(=O)cc(N5CCOCC5)o4)c2S3)C[C@H](C)O1
-2.9
